Test system: MARK3
Conditions: concentration: 1 μM, replicates: in singlicate; n = 1;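 also: KINOMEscan kinase panel screen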
%Inh overview
Endpoint: %Inh (%)

>  <Compound>
Nc1n[nH]c2cnc(-c3ccccc3)cc12 [SB-642124]

>  <Endpoint>
%Inh

>  <Readout Unit>
%

>  <Quantitative Readout>
0

$$$$
>  <Compound>
CCn1c(-c2nonc2N)nc2c(C#CC(C)(C)O)nc(OC[C@H](N)c3ccccc3)cc21 [GSK943949]

>  <Endpoint>
%Inh

>  <Readout Unit>
%

>  <Quantitative Readout>
0

$$$$
>  <Compound>
COCCOCCOc1cc2ncc3c4ccc(C#N)cc4[nH]c3c2cc1OC

>  <Endpoint>
%Inh

>  <Readout Unit>
%

>  <Quantitative Readout>
7

$$$$
>  <Compound>
Cl.c1ccc(-c2ccc3c(Nc4ccc5[nH]ncc5c4)ccnc3c2)nc1 [GW440137]

>  <Endpoint>
%Inh

>  <Readout Unit>
%

>  <Quantitative Readout>
0

$$$$
>  <Compound>
O=C(Nc1n[nH]c2nc(-c3ccc(O)cc3)ccc12)C1CC1 [SB-710363]

>  <Endpoint>
%Inh

>  <Readout Unit>
%

>  <Quantitative Readout>
0

$$$$
>  <Compound>
O=C(O)C(F)(F)F.O=C(O)C(F)(F)F.O=c1[nH]ccc2nc(N[C@@H]3CCCNC3)nc(Nc3ccc(S(=O)(=O)N4CCOCC4)cc3)c12 [GSK2177277]

>  <Endpoint>
%Inh

>  <Readout Unit>
%

>  <Quantitative Readout>
90.5

$$$$
>  <Compound>
Cn1cc(-c2ccc3c(c2)CCN3C(=O)Cc2cccc(F)c2)c2c(N)ncnc21 [GSK2603358]

>  <Endpoint>
%Inh

>  <Readout Unit>
%

>  <Quantitative Readout>
0

$$$$
>  <Compound>
NCCCC(NC(=O)c1cc(Br)c(-c2ccnc3[nH]ccc23)s1)c1ccccc1.O=C(O)C(F)(F)F.O=C(O)C(F)(F)F (centres unmarked) [GSK1287544]

>  <Endpoint>
%Inh

>  <Readout Unit>
%

>  <Quantitative Readout>
20

$$$$

* * *

System: IKK-epsilon
Construct: gene IKBKE
Conditions: concentration: 1 μM, replicates: in singlicate; n = 1

>  <Molecule>
COc1cc(Nc2nccc(N3CCC(NC(=O)Nc4cccc(C(C)=O)c4)C3)n2)cc(OC)c1OC (stereo not drawn)

>  <Assayed Target>
IKK-epsilon

>  <%Inh [%]>
20

$$$$
>  <Molecule>
COc1cccc(NC(=O)NC2CCN(c3ccnc(Nc4cc(OC)c(OC)c(OC)c4)n3)C2)c1 (stereo not drawn)

>  <Assayed Target>
IKK-epsilon

>  <%Inh [%]>
12

$$$$
>  <Molecule>
COc1cccc(C2=C(Nc3ccc(Cl)c(C(=O)O)c3)C(=O)NC2=O)c1

>  <Assayed Target>
IKK-epsilon

>  <%Inh [%]>
91.1

$$$$
>  <Molecule>
Oc1cc(Nc2ccnc3cc(I)ccc23)ccc1F

>  <Assayed Target>
IKK-epsilon

>  <%Inh [%]>
0

$$$$
>  <Molecule>
COCCOCCOc1cc2ncc3c4ccc(C#N)cc4[nH]c3c2cc1OC

>  <Assayed Target>
IKK-epsilon

>  <%Inh [%]>
60

$$$$
>  <Molecule>
COc1cccc(C(=O)Nc2cccc(Oc3ccc4nc(NC(=O)C5CC5)cn4n3)c2)c1

>  <Assayed Target>
IKK-epsilon

>  <%Inh [%]>
0

$$$$
